Recorded viability at 10 µM values for a group of compounds are listed next.
- System: M14
- Assay overview: Cytotoxicity against human M14 cells assessed as cell viability at 10 uM incubated for 48 hrs by sulforhodamine B assay relative to control
- Format: functional
- Settings: read-out: Activity
All answers are understood in %, so give the number only.

Example entries begin here.
| Given smiles | Parameter measured | Unit abbrev | Measurement |
| --- | --- | --- | --- |
| O=S(=O)(NCCNc1nccc(-c2c(-c3cccc(F)c3)nc3sccn23)n1)c1ccccc1 | viability at 10 µM | % | 41.4 |
| O=S(=O)(NCCNc1nccc(-c2c(-c3cccc(F)c3)nc3sccn23)n1)c1cccc2ccccc12 | viability at 10 µM | % | 107 |
| O=S(=O)(NCCNc1nccc(-c2c(-c3cccc(F)c3)nc3sccn23)n1)c1ccc(Br)cc1 | viability at 10 µM | % | 52.3 |
| O=S(=O)(NCCNc1nccc(-c2c(-c3cccc(F)c3)nc3sccn23)n1)c1ccc(F)cc1 | viability at 10 µM | % | 67.8 |

Find viability at 10 µM for O=C(NCCCNc1nccc(-c2c(-c3cccc(F)c3)nc3sccn23)n1)c1ccc(F)cc1 on M14 and write it down. 85.3

====

- Test system: SK-MEL-2
- Assay overview: Cytotoxicity against human SK-MEL-2 cells assessed as cell viability at 10 uM incubated for 48 hrs by sulforhodamine B assay relative to control
- Format: functional
- Settings: read-out: Activity
Range-based classes on measured viability at 10 µM: class A = under 60%, class B = from 60% up to 80%, class C = 80% and over

| Given smiles | Group label |
| --- | --- |
| O=C(NCCNc1nccc(-c2c(-c3cccc(F)c3)nc3sccn23)n1)c1ccccc1 | class A |
| O=C(NCCNc1nccc(-c2c(-c3cccc(F)c3)nc3sccn23)n1)c1c(F)cccc1F | class B |
| Cc1ccc(S(=O)(=O)NCCCNc2nccc(-c3c(-c4cccc(F)c4)nc4sccn34)n2)cc1 | class C |
| O=S(=O)(NCCNc1nccc(-c2c(-c3cccc(F)c3)nc3sccn23)n1)c1ccccc1 | class A |

State the band of O=S(=O)(NCCCNc1nccc(-c2c(-c3cccc(F)c3)nc3sccn23)n1)c1ccccc1 class B

Could you tell me which band O=S(=O)(NCCNc1nccc(-c2c(-c3cccc(F)c3)nc3sccn23)n1)c1ccc(F)cc1 belongs to? class B

Which viability at 10 µM category applies to O=S(=O)(NCCNc1nccc(-c2c(-c3cccc(F)c3)nc3sccn23)n1)c1ccc(C(F)(F)F)cc1 here? class C

Tag the class for O=S(=O)(NCCNc1nccc(-c2c(-c3cccc(F)c3)nc3sccn23)n1)c1cccc2ccccc12 class C

Lab note: which band did O=S(=O)(NCCCNc1nccc(-c2c(-c3cccc(F)c3)nc3sccn23)n1)c1ccc(F)cc1 land in? class B

Into which category would you place O=S(=O)(NCCNc1nccc(-c2c(-c3cccc(F)c3)nc3sccn23)n1)c1ccc(Br)cc1 ? class B

The entry to classify is O=C(NCCNc1nccc(-c2c(-c3cccc(F)c3)nc3sccn23)n1)c1ccc(C(F)(F)F)cc1 ; which class holds it? class B

Textbook exercise: identify the category of the compound given here, O=C(NCCNc1nccc(-c2c(-c3cccc(F)c3)nc3sccn23)n1)c1ccc(Cl)cc1 , according to its measured value. class B

====

- System: EKVX
- Assay overview: Cytotoxicity against human EKVX cells assessed as cell viability at 10 uM incubated for 48 hrs by sulforhodamine B assay relative to control
- Format: functional
- Settings: read-out: Activity
viability at 10 µM strictly less than 70% = True. Otherwise False.

Study these solved cases before continuing.
| Given smiles | Group label |
| --- | --- |
| O=S(=O)(NCCNc1nccc(-c2c(-c3cccc(F)c3)nc3sccn23)n1)c1ccc(F)cc1 | True |
| O=S(=O)(NCCNc1nccc(-c2c(-c3cccc(F)c3)nc3sccn23)n1)c1ccc(Cl)cc1 | True |
| O=S(=O)(NCCCNc1nccc(-c2c(-c3cccc(F)c3)nc3sccn23)n1)c1ccc(Cl)cc1 | False |

Bench note: check whether O=S(=O)(NCCNc1nccc(-c2c(-c3cccc(F)c3)nc3sccn23)n1)c1ccccc1 shows viability at 10 µM below 70% True

hey, is viability at 10 µM for Cc1ccc(S(=O)(=O)NCCCNc2nccc(-c3c(-c4cccc(F)c4)nc4sccn34)n2)cc1 lower than 70% or not? False

Lab note: confirm whether the reported viability at 10 µM for this compound is below 70%, equality not counting. compound: O=S(=O)(NCCCNc1nccc(-c2c(-c3cccc(F)c3)nc3sccn23)n1)c1ccc(Br)cc1 True

Could you please tell me whether viability at 10 µM recorded for O=S(=O)(NCCCNc1nccc(-c2c(-c3cccc(F)c3)nc3sccn23)n1)c1ccccc1 is less than 70%? True

Lab log: compare recorded viability at 10 µM with 70%; is it strictly lower for O=S(=O)(NCCCNc1nccc(-c2c(-c3cccc(F)c3)nc3sccn23)n1)c1ccc(F)cc1 ? False

====

- Tested on: K562
- Assay overview: Cytotoxicity against human K562 cells assessed as cell viability at 10 uM incubated for 48 hrs by sulforhodamine B assay relative to control
- Format: functional
- Settings: read-out: Activity
Rule: measured viability at 10 µM below 40% gets class 1; anything equal to or greater than 40% gets class 0.

| Given smiles | Group label |
| --- | --- |
| O=C(NCCCNc1nccc(-c2c(-c3cccc(F)c3)nc3sccn23)n1)c1ccc(C(F)(F)F)cc1 | class 0 |
| Cc1ccc(S(=O)(=O)NCCCNc2nccc(-c3c(-c4cccc(F)c4)nc4sccn34)n2)cc1 | class 0 |
| O=S(=O)(NCCNc1nccc(-c2c(-c3cccc(F)c3)nc3sccn23)n1)c1ccc(F)cc1 | class 1 |
| O=C(NCCNc1nccc(-c2c(-c3cccc(F)c3)nc3sccn23)n1)c1ccc(C(F)(F)F)cc1 | class 0 |
| O=S(=O)(NCCCNc1nccc(-c2c(-c3cccc(F)c3)nc3sccn23)n1)c1cccc(F)c1 | class 1 |

Consider the compound O=C(NCCNc1nccc(-c2c(-c3cccc(F)c3)nc3sccn23)n1)c1ccc(Cl)cc1 . Is its viability at 10 µM strictly less than 40%? class 0

Field: below-cutoff. Rule: recorded viability at 10 µM strictly less than 40%. Subject: O=S(=O)(NCCCNc1nccc(-c2c(-c3cccc(F)c3)nc3sccn23)n1)c1ccc(C(F)(F)F)cc1 class 0

Hi there! Is viability at 10 µM for O=S(=O)(NCCCNc1nccc(-c2c(-c3cccc(F)c3)nc3sccn23)n1)c1ccc(Cl)cc1 below 40%, do you know? class 1

Please check: viability at 10 µM for O=C(NCCNc1nccc(-c2c(-c3cccc(F)c3)nc3sccn23)n1)C1CCCCC1 , strictly under 40% or not? class 0

====

- Test system: BT-549
- Assay overview: Cytotoxicity against human BT-549 cells assessed as cell viability at 10 uM incubated for 48 hrs by sulforhodamine B assay relative to control
- Type: functional
- Settings: read-out: Activity
Lab note: cut-off is 80%. Strictly less in viability at 10 µM is Satisfied. Exactly 80% or more is Not satisfied.

Answered examples (8):
| Given smiles | Group label |
| --- | --- |
| O=C(NCCCNc1nccc(-c2c(-c3cccc(F)c3)nc3sccn23)n1)c1ccc(C(F)(F)F)cc1 | Not satisfied |
| O=S(=O)(NCCCNc1nccc(-c2c(-c3cccc(F)c3)nc3sccn23)n1)c1ccc(O)cc1 | Not satisfied |
| O=S(=O)(NCCCNc1nccc(-c2c(-c3cccc(F)c3)nc3sccn23)n1)c1cccc2ccccc12 | Satisfied |
| O=C(NCCNc1nccc(-c2c(-c3cccc(F)c3)nc3sccn23)n1)c1ccc(Cl)cc1 | Satisfied |
| O=S(=O)(NCCNc1nccc(-c2c(-c3cccc(F)c3)nc3sccn23)n1)c1ccc(Br)cc1 | Satisfied |
| O=S(=O)(NCCCNc1nccc(-c2c(-c3cccc(F)c3)nc3sccn23)n1)c1cccc(F)c1 | Satisfied |
| O=S(=O)(NCCNc1nccc(-c2c(-c3cccc(F)c3)nc3sccn23)n1)c1ccccc1 | Satisfied |
| O=S(=O)(NCCCNc1nccc(-c2c(-c3cccc(F)c3)nc3sccn23)n1)c1ccc(Br)cc1 | Satisfied |

Problem: For the compound O=S(=O)(NCCCNc1nccc(-c2c(-c3cccc(F)c3)nc3sccn23)n1)c1ccccc1 , is viability at 10 µM under 80%? Satisfied

Is it true that viability at 10 µM reported for O=C(NCCCNc1nccc(-c2c(-c3cccc(F)c3)nc3sccn23)n1)c1ccc(F)cc1 is less than 80%? Not satisfied

Would you kindly verify if viability at 10 µM of Cc1ccc(S(=O)(=O)NCCCNc2nccc(-c3c(-c4cccc(F)c4)nc4sccn34)n2)cc1 is strictly less than 80%? Not satisfied

Consider O=C(NCCNc1nccc(-c2c(-c3cccc(F)c3)nc3sccn23)n1)c1ccccc1 . Does its viability at 10 µM lie strictly below 80%? Satisfied
